Changes of blood pressure reference
System: renal hypertensive rats
assay_details: Antihypertensive activity in rats, p.o. (Table 4)
Type: in vivo, rat
assay_context: 100 mg/kg/day p.o.; 4th day, 5 hours after administration
Report as a plain number; the unit mmHg is understood.

compound: CC(Oc1ccc(Oc2ccc(Cl)cc2)cc1)C(=O)NCCOP(=O)(O)OCCN (stereo not shown)
reported_value: -27
--
compound: NCCOP(=O)(O)OCCNC(=O)COc1ccc(Oc2ccc(Cl)cc2)cc1
reported_value: -41
--
compound: NCCOP(=O)(O)OCCCNC(=O)COc1ccc(Oc2ccc(Cl)cc2)cc1
reported_value: -19

Would you kindly look at the next entry?
Lab note: compound CC(Oc1ccc(Oc2ccc(Cl)cc2)cc1)C(=O)NCCCOP(=O)(O)OCCN (stereo not shown) tested on renal hypertensive rats; recorded Changes of blood pressure was -16

###

Test system: renal hypertensive rats
assay_details: Antihypertensive activity in renal hypertensive rats, i.m. (Table 3)
Assay type: in vivo, rat
assay_context: 30 mg/kg/day i.m.; 4th day, 0 h (immediately before administration)
Changes of blood pressure reference
Report as a plain number; the unit mmHg is understood.

molecule: CCC=CCC=CCC=CCCCCCCCC(=O)NCCCOP(=O)(O)OCCN
unit_text: mmHg
reported_value: -22

Item: CCCCCC=CCC=CCCCCCCCC(=O)NCCCOP(=O)(O)OCCN | Changes of blood pressure: -22

Item: CCCCCC=CCC=CCC=CCC=CCCCC(=O)OCC(COP(=O)(O)OCCN)OC(=O)CCCCCCCCCCCCCCCCC (racemic) [(a), reference compound] | Changes of blood pressure: -5

Item: CCCCCC=CCC=CCCCCCCCC(=O)NCCOP(=O)(O)OCCN | Changes of blood pressure: -23

Item: CCC=CCC=CCC=CCCCCCCCC(=O)NCCOP(=O)(O)OCCN | Changes of blood pressure: -16

Item: CCC=CCC=CCC=CCCCCCCCC(=O)OCC(COP(=O)(O)OCCN)OC(=O)CCCCCCCCCCCCCCCCC (racemic) [(b), reference compound] | Changes of blood pressure: -7

###

Changes of blood pressure reference
Tested on: renal hypertensive rats
assay_details: Antihypertensive activity in renal hypertensive rats, i.m. (Table 3)
Format: in vivo, rat
assay_context: 30 mg/kg/day i.m.; 3rd day, 0 h (immediately before administration)
Record the result as a number with its unit.

compound: CCC=CCC=CCC=CCCCCCCCC(=O)NCCOP(=O)(O)OCCN [(1)]
Changes of blood pressure: -8 mmHg

compound: CCC=CCC=CCC=CCCCCCCCC(=O)OCC(COP(=O)(O)OCCN)OC(=O)CCCCCCCCCCCCCCCCC (racemic) [(b), reference compound]
Changes of blood pressure: -8 mmHg

compound: CCCCCC=CCC=CCC=CCC=CCCCC(=O)OCC(COP(=O)(O)OCCN)OC(=O)CCCCCCCCCCCCCCCCC (racemic) [(a), reference compound]
Changes of blood pressure: -5 mmHg

compound: CCC=CCC=CCC=CCCCCCCCC(=O)NCCCOP(=O)(O)OCCN [Compound (2)]
Changes of blood pressure: -20 mmHg

Item: CCCCCC=CCC=CCCCCCCCC(=O)NCCCOP(=O)(O)OCCN [(4)] | Changes of blood pressure: -12 mmHg

Item: CCCCCC=CCC=CCCCCCCCC(=O)NCCOP(=O)(O)OCCN [(3)] | Changes of blood pressure: -8 mmHg
